test system: Mice; test: analgesic activity by pressure stimulation method (tail base); format: in vivo; conditions: oral administration, dose that induced 50 percent of % of MPE
reported.property: ED50(mg/kg) p.o.
Give a bare numeral; the unit mg/kg is implied.

mol	result.units	value.observed
CCN(CCC(=O)O)C(=O)[C@H](Cc1ccccc1)NC(=O)[C@@H](CCCNC(=N)N)NC(=O)[C@H](Cc1ccc(O)cc1)NC(=N)N	mg/kg	16.0
N=C(N)NCCC[C@@H](NC(=O)[C@H](Cc1ccc(O)cc1)NC(=N)N)C(=O)N[C@@H](Cc1ccccc1)C(=O)NCCC(=O)O	mg/kg	5.8
CN(CC(=O)O)C(=O)[C@H](Cc1ccccc1)NC(=O)[C@@H](CCCNC(=N)N)NC(=O)[C@H](Cc1ccc(O)cc1)NC(=N)N	mg/kg	17.8
N=C(N)NCCC[C@@H](NC(=O)[C@H](Cc1ccc(O)cc1)NC(=N)N)C(=O)N[C@@H](Cc1ccccc1)C(=O)NCCC(N)=O	mg/kg	10.7
COC(=O)CCN(C)C(=O)[C@H](Cc1ccccc1)NC(=O)[C@@H](CCCNC(=N)N)NC(=O)[C@H](Cc1ccc(O)cc1)NC(=N)N	mg/kg	8.9

Now consider the entry below.
Quick one: ED50(mg/kg) p.o. for CN(CCC(=O)O)C(=O)[C@H](Cc1ccccc1)NC(=O)[C@@H](CCCNC(=N)N)NC(=O)[C@H](Cc1ccc(O)cc1)NC(=N)N ?
6.6

---

tested on: Mice; experiment: analgesic activity by pressure stimulation method (tail base); type: in vivo; conditions: subcutaneous administration (skin in the backs), dose that induced 50 percent of % of MPE
ED50(mg/kg) s.c. overview
Please give a number only; it is taken to be in mg/kg.

For orientation, consider the following solved cases.
mol	reported.property	value.observed
CN(CCC(=O)O)C(=O)[C@H](Cc1ccccc1)NC(=O)[C@@H](CCCNC(=N)N)NC(=O)[C@H](Cc1ccc(O)cc1)NC(=N)N	ED50(mg/kg) s.c.	0.10
CN(CC(=O)O)C(=O)[C@H](Cc1ccccc1)NC(=O)[C@@H](CCCNC(=N)N)NC(=O)[C@H](Cc1ccc(O)cc1)NC(=N)N	ED50(mg/kg) s.c.	0.39
N=C(N)NCCC[C@@H](NC(=O)[C@H](Cc1ccc(O)cc1)NC(=N)N)C(=O)N[C@@H](Cc1ccccc1)C(=O)NCCC(=O)O	ED50(mg/kg) s.c.	0.14
CN(C)C(=O)[C@H](Cc1ccccc1)NC(=O)[C@@H](CCCNC(=N)N)NC(=O)[C@H](Cc1ccc(O)cc1)NC(=N)N	ED50(mg/kg) s.c.	1.22
N=C(N)NCCC[C@@H](NC(=O)[C@H](Cc1ccc(O)cc1)NC(=N)N)C(=O)N[C@@H](Cc1ccccc1)C(=O)NCCCO	ED50(mg/kg) s.c.	0.88
CN(CC(N)=O)C(=O)[C@H](Cc1ccccc1)NC(=O)[C@@H](CCCNC(=N)N)NC(=O)[C@H](Cc1ccc(O)cc1)NC(=N)N	ED50(mg/kg) s.c.	0.27

Please state recorded ED50(mg/kg) s.c. (tested on Mice) of N=C(N)NCCC[C@@H](NC(=O)[C@H](Cc1ccc(O)cc1)NC(=N)N)C(=O)N[C@@H](Cc1ccccc1)C(=O)NCCC(N)=O
0.13

Identify the measured ED50(mg/kg) s.c. of COC(=O)CCN(C)C(=O)[C@H](Cc1ccccc1)NC(=O)[C@@H](CCCNC(=N)N)NC(=O)[C@H](Cc1ccc(O)cc1)NC(=N)N for Mice.
0.12

Please state recorded ED50(mg/kg) s.c. (tested on Mice) of CCN(CCC(=O)O)C(=O)[C@H](Cc1ccccc1)NC(=O)[C@@H](CCCNC(=N)N)NC(=O)[C@H](Cc1ccc(O)cc1)NC(=N)N
0.15
